Experiment: NOMO-1 AML cell viability reduction, primary screen, STK33 inhibitor project, CellTiter-Glo luminescence (AID 2330)
Conditions: NOMO-1 AML viability, 72 h, stronger effect = higher value, concentration not given here
In all, about 37,000 compounds went through this assay and about 2,800 (7.6%) were called active. Inconclusive results (about 1%) are left out. Shown is part of a subset that was picked to be rich in actives.

{"columns": ["COMPOUND", "UNIT NAME", "inhibition"],
 "data": [
  ["Cc1ccc(S(=O)(=O)N(C)C[C@@H]2Oc3c(NS(=O)(=O)c4ccc(F)cc4)cccc3C(=O)N([C@@H](C)CO)C[C@H]2C)cc1", "%", -7.97],
  ["C[C@H]1CN([C@@H](C)CO)C(=O)c2cc(NS(=O)(=O)c3cn(C)cn3)ccc2O[C@H]1CN(C)CC1CCCCC1", "%", 0.874],
  ["COC(=O)C(C)N(C#N)c1nc(C)nc(C)n1 (centres undefined)", "%", 113],
  ["Cc1ccc(S(=O)(=O)N(C)C[C@H]2Oc3ccc(NC(=O)Cc4cn(C)c5ccccc45)cc3CC(=O)N([C@@H](C)CO)C[C@H]2C)cc1", "%", 15.7]
]}

---

inhibition listing for selected molecules.
Assay: NOMO-1 AML cell viability reduction, primary screen, STK33 inhibitor project, CellTiter-Glo luminescence (AID 2330)
Details: NOMO-1 AML viability, 72 h, stronger effect = higher value, concentration not given here
Hit rate of the full screen: of about 37,000 compounds, about 2,800 (7.6%) were called active. Roughly 1% stayed inconclusive and do not appear here. The full list was thinned out, with actives kept by preference.

{"columns": ["SMILES NOTATION", "UNIT NAME", "inhibition"],
 "data": [
  ["Cc1ccc(S(=O)(=O)N(C)C[C@H]2Oc3ccc(NC(=O)CCCCCC(=O)Nc4ccccc4N)cc3C(=O)N([C@H](C)CO)C[C@H]2C)cc1", "%", 19.8],
  ["Cc1ccc(NC(=O)CSc2ncnc3sc(C)c(C)c23)cc1", "%", 11.3],
  ["COc1ccc(N(Cc2cc3ccccc3[nH]c2=O)C(=O)c2cccc(OC)c2)cc1", "%", -11],
  ["C[C@@H]1CCCCO[C@H](CN(C)S(=O)(=O)c2ccccc2)[C@@H](C)CN([C@H](C)CO)C(=O)c2cc(NC(=O)Nc3ccc(F)cc3)ccc2O1", "%", 33.7]
]}

---

Assay: NOMO-1 AML cell viability reduction, primary screen, STK33 inhibitor project, CellTiter-Glo luminescence (AID 2330)
Details: NOMO-1 AML viability, 72 h, stronger effect = higher value, concentration not given here
Screen size: about 37,000 compounds; about 2,800 (7.6%) were called active. Not shown: some 1% with an inconclusive outcome. The sample as a whole holds a higher share of actives than the screen did.
inhibition listing for selected compounds.
OUTCOME MEASURE: inhibition

{"columns": ["COMPOUND", "ENDPOINT VALUE"],
 "data": [
  ["COC(=O)c1ccccc1NC(=O)C(C)Oc1ccccc1F (centres undefined)", "8.1% (inactive)"],
  ["CC(C)NC(=O)Nc1cccc2c1O[C@H](CN(C)S(=O)(=O)c1cccs1)[C@@H](C)CN([C@H](C)CO)C2=O", "-9.32% (inactive)"],
  ["O=C(Nc1ccccc1)Nc1cc(C2CC2)nn1-c1ccccc1", "16.4% (inactive)"],
  ["COc1ccc(NC(=O)N(C)C[C@@H]2OCCCC[C@@H](C)Oc3ccc(NS(=O)(=O)c4c(C)noc4C)cc3C(=O)N([C@H](C)CO)C[C@@H]2C)cc1", "7.62% (inactive)"]
]}
